- System: Klebsiella pneumoniae
- testMethodNotes: Antibacterial activity against polymyxin-susceptible Klebsiella pneumoniae ATCC 700721 clinical isolates assessed as reduction in bacterial growth by broth microdilution method
- Assay type: functional
Each item that follows carries a reported MIC.
measuredAttribute: MIC (µg/mL)

• CC[C@H](C)CCCCC(=O)N[C@@H](CCN)C(=O)N[C@H](C(=O)N[C@@H](CCN)C(=O)N[C@H]1CCNC(=O)[C@H](CO)NC(=O)[C@H](CCN)NC(=O)[C@H](CCN)NC(=O)[C@H](CC(C)C)NC(=O)[C@@H](Cc2ccccc2)NC(=O)[C@H](CCN)NC1=O)[C@@H](C)O = 0.5
• CC[C@H](C)CCCCC(=O)N[C@@H](CCN)C(=O)N[C@H](C(=O)N[C@@H](CCN)C(=O)N[C@H]1CCNC(=O)[C@H](COC)NC(=O)[C@H](CCN)NC(=O)[C@H](CCN)NC(=O)[C@H](CC(C)C)NC(=O)[C@@H](Cc2ccccc2)NC(=O)[C@H](CCN)NC1=O)[C@@H](C)O = 4

Values compiled from ChEMBL document CHEMBL5316337.
